- tested_on: PDE10 (UniProt Q9Y233)
- assay_remarks: PDE10 enzyme inhibition, IMAP TR-FRET assay (MPDE10A7 Enzyme Activity and Inhibition)
- Format: biochemical
- measurement_setup: PDE10 enzyme inhibition; average IC50 data for each compound; read-out: Average IC50
measure: IC50 (nM)
Provide the reading as a plain figure in nM.

O=C(c1ccc(Oc2nccnc2Cl)cc1)c1nc2cccc(F)c2[nH]1 | 406
O=C(c1ccc(Oc2nccnc2[C@H]2CC[C@H](O)CC2)cc1)c1nc2ccccc2[nH]1 | 0.426
O=C(c1ccc(Oc2nccnc2Cl)cc1)c1nc2ccc(F)cc2[nH]1 [drawing 813] | 1580
COC(=O)[C@H]1CCN(c2nccnc2Oc2ccc(Nc3nc4ccccc4s3)cc2)C1 (stereo in doubt) | 23
CC(=O)N1CCC[C@@H](c2nccnc2Oc2ccc(C(=O)c3nc4ccccc4[nH]3)cc2)C1 (stereo in doubt) | 2.96
OC[C@@H]1CCN(c2nccnc2Oc2ccc(Nc3nc4ccccc4s3)cc2)C1 [drawing 732] | 2.89
O=C(c1ccc(Oc2nccnc2C2(O)CCOCC2)cc1)c1nc2ccccc2[nH]1 [drawing 908] | 2.16
O[C@@H]1CCC[C@H](c2nccnc2Oc2ccc(Nc3nc4ccccc4s3)cc2)C1 (stereo in doubt) | 2.32
COC[C@@H]1CCCN1c1nccnc1Oc1ccc(Nc2nc3ccccc3s2)cc1 [drawing 719] | 9.44
Cc1ncsc1CCOc1nccnc1Oc1ccc(C(=O)c2nc3ccccc3[nH]2)cc1 [drawing 853] | 1.86

Hello, please tell me recorded IC50 for this one: O=C(c1ccc(Oc2nccnc2[C@@H]2CCC[C@H](O)C2)cc1)c1nc2ccccc2[nH]1 [drawing 907]
1.16

Fill in reported IC50 for this entry: Cc1cc(-c2nccnc2Oc2ccc(Nc3nc4ccccc4s3)cc2)ccn1 [drawing 750]
17.5

Give the measured IC50 for O=C(c1ccc(Oc2nccnc2C2CCSCC2)cc1)c1nc2ccccc2[nH]1 [drawing 932]
1.85

Provide measured IC50 value, entry: CCOC(=O)[C@H]1CCCN(c2nccnc2Oc2ccc(C(=O)c3nc4ccccc4[nH]3)cc2)C1 [drawing 831]
0.843

For the molecule CC(=O)N1CCC(c2nccnc2Oc2ccc(C(O)c3nc4ccccc4[nH]3)cc2)CC1 (stereo not shown) [drawing 975] , report IC50.
19

Determine from records and report IC50 for O=C(c1ccc(Oc2nccnc2-c2cccnc2)cc1)c1nc2ccccc2[nH]1 [drawing 754]
8.05

---

Listing of recorded IC50 by entry.
- tested_on: PDE10 (UniProt Q9Y233)
- assay_remarks: PDE10 enzyme inhibition, IMAP TR-FRET assay (MPDE10A7 Enzyme Activity and Inhibition)
- Type: biochemical
- measurement_setup: IC50 class against PDE10; read-out: IC50

Provide IC50 value for the following compound: O=S1(=O)CCN(c2nccnc2Oc2ccc(Nc3nc4ccccc4s3)cc2)CC1 [Example 75]
250 to 1000 nM

In one line, give reported IC50 of the entry O=C(c1ccc(Oc2nccnc2OCC2CC2)cc1)c1nc2ccccc2[nH]1 [Example 163] .
250 to 1000 nM

Identify measured IC50 corresponding to Cc1nc2c([nH]1)CCN(c1nccnc1Oc1ccc(Nc3nc4ccccc4s3)cc1)C2 [Example 82]
100 to 250 nM

Return the recorded IC50 value; entry: CN1CCN(c2nccnc2Oc2ccc(Nc3nc4ccccc4s3)cc2)CC1 [Example 72]
25 to 100 nM

Give reported IC50 value for O=C(c1ccc(Oc2nccnc2-c2ccncc2)cc1)c1nc2ccccc2[nH]1 [Example 124]
< 25 nM

# return recorded IC50 for input COCC1CCCN(c2nccnc2Oc2ccc(Nc3nc4ccccc4s3)cc2)C1 (centres unmarked) [Example 98]
25 to 100 nM

Return IC50 for the following compound: FC1(c2nccnc2Oc2ccc(Nc3nc4ccccc4s3)cc2)CCOCC1 [Example 204]
< 25 nM

Identify measured IC50 associated with COc1ncccc1-c1nccnc1Oc1ccc(Nc2nc3ccccc3s2)c(F)c1 [Example 157]
25 to 100 nM

Quickly give me recorded IC50 for O=C(c1ccc(Oc2nccnc2C2CCOCC2)cc1)c1nc2ncccc2[nH]1 [Example 182]
< 25 nM

Report measured IC50; entry is Fc1ccc2[nH]c(Nc3ccc(Oc4nccnc4N4CCOCC4)cc3)nc2c1 [Example 64]
25 to 100 nM

Provide IC50 value for the following compound: COC(=O)c1ccc(-c2nccnc2Oc2ccc(C(=O)c3nc4ccccc4[nH]3)cc2)cc1 [Example 126]
< 25 nM

Tell me IC50 reported for O=C(c1ccc(Oc2nccnc2Oc2ccccc2)cc1)c1nc2ccccc2[nH]1 [Example 167]
100 to 250 nM

Give the measured IC50 for CN(c1ccc(Oc2nccnc2C2CCOCC2)cc1)c1nc2ccccc2s1 [Example 201]
< 25 nM

Given the compound Clc1ccc(-c2nccnc2Oc2ccc(Nc3nc4ccccc4s3)cc2)cn1 [Example 145] , write its reported IC50.
< 25 nM

Quick one: give measured IC50 for O=C(c1ccc(Oc2nccnc2[C@H]2CCC[C@@H](O)C2)cc1)c1nc2ccccc2[nH]1 (racemic) [Example 189]
< 25 nM
